Where do the numbers come from? From patent US10894782B2.

log10(IC50) values, listed per item
- Measured On: UniProt P55072
- Assay Comment: P97 Biomolgreen ATPase assay, 200 μM ATP
- Assay type: biochemical
- Study Conditions: read-out: P97 Biomolgreen, IC50
Short version: log10 scale, IC50, µM.

These recorded examples may help you get a feel for the data.
{"Compound": "Cc1cc(OCc2nnc(SC3C=CCCC3)n2-c2cccnc2)ccc1C#CCOC(=O)NCCN1CCN(C(C)C)CC1 (stereo not shown) [Compound 60]", "Measured On": "UniProt P55072", "log10(IC50)": -1.72}
{"Compound": "C=CCSc1nnc(COc2ccc(C#CCNC(=O)CC)c(C)c2)n1-c1cccnc1 [Compound 131]", "Measured On": "UniProt P55072", "log10(IC50)": -0.48}
{"Compound": "OCC#Cc1cc(F)c(OCc2nnc(SC3C=CCCC3)n2-c2cccnc2)cc1F (stereo not shown) [Compound 114]", "Measured On": "UniProt P55072", "log10(IC50)": -1.70}
{"Compound": "Cc1cc(OCc2nnc(SC3CCCC3)n2-c2cccnc2)ccc1C#CCN1C(=O)c2ccccc2C1=O [Compound 50]", "Measured On": "UniProt P55072", "log10(IC50)": -0.55}

Notebook: Cc1cc(OCc2nnc(SC3C=CCCC3)n2-c2cccnc2)ccc1C#CCNS(=O)(=O)c1ccc(F)cc1 (stereo not shown) [Compound 15] , log10(IC50) read as -1.13

Notebook: Cc1cc(OCc2nnc(SC3C=CCCC3)n2-c2cccnc2)ccc1C#CC(C)(C)NC(=O)OC(C)(C)C (stereo not shown) [Compound 45] , log10(IC50) read as -0.19

Notebook: CCC(=O)NCC#Cc1ccc(OCc2nnc(SC3C=CCCC3)n2-c2cccnc2)cc1C (stereo not shown) [Compound 112] , log10(IC50) read as -1.60

Notebook: CN1CCC(NC(=O)OCC#Cc2ccc(OCc3nnc(SC4C=CCCC4)n3-c3cccnc3)c(F)c2F)CC1 (stereo not shown) [Compound 118] , log10(IC50) read as -1.77

Notebook: COc1cc(C#CCO)c(F)cc1OCc1nnc(SC2C=CCCC2)n1-c1cccnc1 (stereo not shown) [Compound 116] , log10(IC50) read as -1.40

Notebook: Cc1cc(OCc2nnc(SC3CCCC3)n2-c2cccnc2)ccc1C#CCO [Compound 58] , log10(IC50) read as -1.03

Notebook: Cc1cc(OCc2nnc(OC3CCCC3)n2-c2cccnc2)ccc1C#CCO [Compound 99] , log10(IC50) read as -0.74

Notebook: Cc1cc(OCc2nnc(CC3CCCC3)n2-c2cccnc2)ccc1C#CCOC(=O)NCCC(=O)N1CCN(C)CC1 [Compound 70] , log10(IC50) read as -1.01

====

IC50 values, listed per item
- Measured On: P97 (Homo sapiens (Human))
- Assay Comment: P97 Biomolgreen ATPase assay, 200 μM ATP
- Type: biochemical
- Study Conditions: read-out: P97 Biomolgreen, IC50
Returns: string containing the number followed by the unit.

These recorded examples may help you get a feel for the data.
{"Compound": "Cc1cc(OCc2nnc(SC3CCCC3)n2-c2cccnc2)ccc1C#CCOC(=O)NCCOCCNC(=O)CC1[C@H]2C[C@@H]3C[C@@H](C[C@H]1C3)C2 (stereo partly shown)", "IC50": "30 nM"}
{"Compound": "Cc1ccc(S(=O)(=O)NCC#Cc2ccc(OCc3nnc(SC4C=CCCC4)n3-c3cccnc3)cc2C)cc1 (stereo not shown)", "IC50": "130 nM"}
{"Compound": "Cc1cc(OCc2nnc(SC3CCCC3)n2-c2cccnc2)ccc1C#CCOC(=O)NC(C)C", "IC50": "27 nM"}
{"Compound": "CN1CCN(CCNC(=O)OCC#Cc2ccc(OCc3nnc(SC4C=CCCC4)n3-c3cccnc3)cc2F)CC1 (stereo not shown) [Compound 107]", "IC50": "13 nM"}
{"Compound": "Cc1cc(OCc2nnc(CC3CCCC3)n2-c2cccnc2)ccc1C#CCOC(=O)NCCN1CCN(C)CC1", "IC50": "66 nM"}

Measured IC50 (P97 (Homo sapiens (Human))), entry Cc1cc(OCc2nnc(SC3C=CCCC3)n2-c2cccnc2)ccc1C#CCNS(=O)(=O)C1CC1 (stereo not shown) : 35 nM

Measured IC50 (P97 (Homo sapiens (Human))), entry Cc1cc(OCc2nnc(SC3C=CCCC3)n2-c2cccnc2)ccc1C#CCNS(=O)(=O)N1CCOCC1 (stereo not shown) : 48 nM

====

IC50 values, listed per item
- Measured On: UniProtKB P55072
- Assay Comment: P97 Biomolgreen ATPase assay, 200 μM ATP
- Type: biochemical
- Study Conditions: P97 Biomolgreen, IC50 (μM)
Write the answer as a number in µM, unit excluded.

Notebook: [2H]C1([2H])C([2H])([2H])C([2H])([2H])C([2H])(Sc2nnc(CNc3ccc(C#CCO)c(C)c3)n2-c2cccnc2)C1([2H])[2H] [Compound 117] , IC50 read as 0.99

Notebook: [2H]C1([2H])C([2H])([2H])C([2H])([2H])C([2H])(Sc2nnc(COc3ccc(C#CCOC(=O)NCc4cc(C)on4)c(C)c3)n2-c2cccnc2)C1([2H])[2H] [Compound 35] , IC50 read as 0.064

Notebook: [2H]C1([2H])C([2H])([2H])C([2H])([2H])C([2H])(Sc2nnc(COc3ccc(C#CCOC(=O)NCCN4CCCN(C(C)C)CC4)c(C)c3)n2-c2cccnc2)C1([2H])[2H] [Compound 32] , IC50 read as 0.023

Notebook: [2H]C1([2H])C([2H])([2H])C([2H])([2H])C([2H])(Sc2nnc(COc3cc(F)c(C#CCO)cc3F)n2-c2cccnc2)C1([2H])[2H] [Compound 123] , IC50 read as 0.021

Notebook: [2H]C1([2H])C([2H])([2H])C([2H])([2H])C([2H])(Sc2nnc(COc3ccc(C#CCOC(=O)NCCc4ncnn4C)c(C)c3)n2-c2cccnc2)C1([2H])[2H] [Compound 31] , IC50 read as 0.052

Notebook: [2H]C1([2H])C([2H])([2H])C([2H])([2H])C([2H])(Sc2nnc(COc3ccc(C#CCOC(=O)NC)c(F)c3)n2-c2cccnc2)C1([2H])[2H] [Compound 106] , IC50 read as 0.02

Notebook: [2H]C1([2H])C([2H])([2H])C([2H])([2H])C([2H])(Sc2nnc(COc3ccc(C#CCOC(=O)NCC(F)(F)F)c(C)c3)n2-c2cccnc2)C1([2H])[2H] [Compound 20] , IC50 read as 0.034

Notebook: [2H]C([2H])(O)C#Cc1ccc(OCc2nnc(SC3([2H])C([2H])([2H])C([2H])([2H])C([2H])([2H])C3([2H])[2H])n2-c2cccnc2)cc1F [Compound 109] , IC50 read as 0.03

Notebook: [2H]C1([2H])C([2H])([2H])C([2H])([2H])C([2H])(Sc2nnc(COc3ccc(C#CC(O)c4ccccc4)c(C)c3)n2-c2cccnc2)C1([2H])[2H] (stereo not drawn) [Compound 52] , IC50 read as 0.55

Notebook: [2H]C1([2H])C([2H])([2H])C([2H])([2H])C([2H])(Sc2nnc(COc3ccc(C#CC(C)N4CCOCC4)c(C)c3)n2-c2cccnc2)C1([2H])[2H] (stereo not drawn) [Compound 3] , IC50 read as 0.17

Notebook: [2H]C1([2H])C([2H])([2H])C([2H])([2H])C([2H])(Sc2nnc(COc3ccc(C#CCO)c(F)c3)n2-c2cccnc2)C1([2H])[2H] [Compound 105] , IC50 read as 0.03

Notebook: [2H]C1([2H])C([2H])([2H])C([2H])([2H])C([2H])(Sc2nnc(COc3ccc(C#CCOC(=O)N4CCC4)c(C)c3)n2-c2cccnc2)C1([2H])[2H] [Compound 37] , IC50 read as 0.07

Notebook: [2H]C1([2H])C([2H])([2H])C([2H])([2H])C([2H])(Sc2nnc(COc3ccc(C#CCOC(=O)NCCN4CCN(C(C)C)CC4)c(C)c3)n2-c2cccnc2)C1([2H])[2H] [Compound 100] , IC50 read as 0.025

====

- Measured On: P97 (Homo sapiens (Human), UniProt P55072)
- Sequence (P55072 whole entry): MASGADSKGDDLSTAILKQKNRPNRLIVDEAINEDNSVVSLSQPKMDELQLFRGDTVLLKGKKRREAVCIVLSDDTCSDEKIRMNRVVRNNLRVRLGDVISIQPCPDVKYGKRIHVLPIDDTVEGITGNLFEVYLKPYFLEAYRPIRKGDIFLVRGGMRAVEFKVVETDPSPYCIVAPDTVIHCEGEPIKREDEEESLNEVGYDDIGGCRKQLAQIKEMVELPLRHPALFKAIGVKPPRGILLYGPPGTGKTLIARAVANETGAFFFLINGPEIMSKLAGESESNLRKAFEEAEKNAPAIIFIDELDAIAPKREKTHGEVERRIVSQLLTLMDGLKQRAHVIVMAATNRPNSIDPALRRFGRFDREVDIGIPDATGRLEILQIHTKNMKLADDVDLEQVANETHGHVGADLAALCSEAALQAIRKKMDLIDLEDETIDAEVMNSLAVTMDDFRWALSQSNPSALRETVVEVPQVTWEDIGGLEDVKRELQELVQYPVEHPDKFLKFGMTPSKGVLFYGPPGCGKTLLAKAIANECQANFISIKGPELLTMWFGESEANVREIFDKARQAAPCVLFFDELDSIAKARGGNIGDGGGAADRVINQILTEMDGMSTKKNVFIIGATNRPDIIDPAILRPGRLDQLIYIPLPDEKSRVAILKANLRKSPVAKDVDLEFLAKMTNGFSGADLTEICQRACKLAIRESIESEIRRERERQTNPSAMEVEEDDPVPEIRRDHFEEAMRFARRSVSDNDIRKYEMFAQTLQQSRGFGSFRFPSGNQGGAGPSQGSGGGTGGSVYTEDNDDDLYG
- Assay Comment: P97 Biomolgreen ATPase assay, 200 μM ATP
- Type: biochemical
- Study Conditions: read-out: P97 Biomolgreen, IC50
Readout Kind: log10(IC50) (log10 of the value in nM)
Short version: log10 scale, IC50, nM.

These recorded examples may help you get a feel for the data.
{"Molecule": "Cc1cc(OCc2nnc(SC3CCCC3)n2-c2cccnc2)ccc1C#CC#N", "log10(IC50)": 1.32}
{"Molecule": "CN1CCN(CCNC(=O)OCC#Cc2ccc(OCc3nnc(SC4C=CCCC4)n3-c3cccnc3)cc2C(F)(F)F)CC1 (stereo not shown)", "log10(IC50)": 1.63}
{"Molecule": "COc1cc(C#CCOC(=O)NC2CCN(C)CC2)c(F)cc1OCc1nnc(SC2C=CCCC2)n1-c1cccnc1 (stereo not shown)", "log10(IC50)": 1.28}
{"Molecule": "Cc1cc(OCc2nnc(SC3C=CCCC3)n2-c2cncc(Cl)c2)ccc1C#CCOC(=O)NCCN1CCN(C)CC1 (stereo not shown)", "log10(IC50)": 2.97}
{"Molecule": "Cc1cc(OCc2nnc(SC3CCCC=C3F)n2-c2cccnc2)ccc1C#CCOC(=O)NCCN1CCN(C)CC1 (stereo not shown)", "log10(IC50)": 2.36}

Notebook: Cc1cc(OCc2nnc(SC3CCCC3)n2-c2cccnc2)ccc1C#CCCc1ccccc1 , log10(IC50) read as 2.00

Notebook: Cc1cc(C(=O)NCC#Cc2ccc(OCc3nnc(SC4C=CCCC4)n3-c3cccnc3)cc2C)no1 (stereo not shown) , log10(IC50) read as 1.70
